Tested on: SKOV3
Assay: CellTiter-Blue cell viability assay
Type: cell-based, human
Details: SKOV3 ovarian cancer cell line; 72 hours; 50% reduction in growth/viability
parameter: pIC50
Entry type: numeric. Quantity: pIC50, the -log10 of concentration in molar units.

Request: Can you look up pIC50 on SKOV3 for N.N.O=C([O-])C1(C(=O)[O-])CCC1.[Pt+2] [Carboplatin, carboplatin] ?
Response: 3.61

----------
Tested on: OVCAR4
Assay: CellTiter-Blue cell viability assay
Assay type: cell-based, human
Conditions: OVCAR4 ovarian cancer cell line; 72 hours; 50% reduction in growth/viability
parameter: IC50 (µM)
Report only the number, with the unit µM understood.

> print(dat)
                                  compound  value.reported
1  N.N.[Cl][Pt][Cl] [Cisplatin, cisplatin]            20.5

Then there is this compound:
Request: Please look up its IC50: N.N.O=C([O-])C1(C(=O)[O-])CCC1.[Pt+2] [Carboplatin, carboplatin]
Response: 72

----------
Test system: HeyA8
Assay: CellTiter-Blue cell viability assay
Assay type: cell-based, human
Conditions: HeyA8 ovarian cancer cell line; 72 hours; 50% reduction in growth/viability
parameter: pIC50
Entry type: numeric. Quantity: pIC50, the -log10 of concentration in molar units.

> print(dat)
                                  compound  parameter  value.reported
1  N.N.[Cl][Pt][Cl] [Cisplatin, cisplatin]      pIC50            4.48

Then there is this compound:
Request: Please look up its pIC50: `N.N.O=C([O-])C1(C(=O)[O-])CCC1.[Pt+2]`
Response: 3.54

----------
System: OVCA433
Assay: CellTiter-Blue cell viability assay
Format: cell-based, human
Conditions: OVCA433 ovarian cancer cell line; 72 hours; 50% reduction in growth/viability
# reported pIC50; entries follow
Entry type: numeric. Quantity: pIC50, the -log10 of concentration in molar units.

> print(dat)
                                  compound  assayed.system  value.reported
1  N.N.[Cl][Pt][Cl] [Cisplatin, cisplatin]         OVCA433            5.06

Then there is this compound:
Request: Please look up its pIC50: `N.N.O=C([O-])C1(C(=O)[O-])CCC1.[Pt+2]`
Response: 3.57

----------
Test system: BG1
Test: CellTiter-Blue cell viability assay
Type: cell-based, human
Settings: BG1 ovarian cancer cell line; 72 hours; 50% reduction in growth/viability
parameter: IC50

> print(dat)
                                   compound  assayed.system  parameter  value.reported
1  N.N.O=C([O-])C1(C(=O)[O-])CCC1.[Pt+2] [Carboplatin, carboplatin]             BG1       IC50          144 µM

Then there is this compound:
Request: Can you look up IC50 on BG1 for N.N.[Cl][Pt][Cl] [Cisplatin, cisplatin] ?
Response: 36.4 µM

----------
Test system: FUOV1
Assay: CellTiter-Blue cell viability assay
Format: cell-based, human
Conditions: FUOV1 ovarian cancer cell line; 72 hours; 50% reduction in growth/viability
Method: […] Drug activity was evaluated using a high-throughput CellTiter-Blue cell viability assay. […] Fluorescence was read at […] using a Synergy 4 microplate reader (Bio-Tek Instruments, Inc., Winooski, Vt.). IC50 results were determined using a sigmoidal equilibrium model fit (XLfit 5.2, ID Business Solutions Ltd.). […]
parameter: pIC50
Entry type: numeric. Quantity: pIC50, the -log10 of concentration in molar units.

Request: Please look up its pIC50: N.N.O=C([O-])C1(C(=O)[O-])CCC1.[Pt+2] [Carboplatin, carboplatin]
Response: 4.06

----------
# reported pIC50; entries follow
System: OVCAR5
Assay: CellTiter-Blue cell viability assay
Type: cell-based, human
Conditions: OVCAR5 ovarian cancer cell line; 72 hours; 50% reduction in growth/viability
Entry type: numeric. Quantity: pIC50, the -log10 of concentration in molar units.

> print(dat)
                                   molecule  assayed.system  parameter  value.reported
1  N.N.O=C([O-])C1(C(=O)[O-])CCC1.[Pt+2] [Carboplatin, carboplatin]          OVCAR5      pIC50            3.90

Then there is this molecule:
Request: Can you look up pIC50 on OVCAR5 for N.N.[Cl][Pt][Cl] [Cisplatin, cisplatin] ?
Response: 4.89

----------
Test system: A2008
Assay: CellTiter-Blue cell viability assay
Type: cell-based, human
Conditions: A2008 ovarian cancer cell line; 72 hours; 50% reduction in growth/viability
# reported IC50; entries follow
Report only the number, with the unit µM understood.

> print(dat)
                                molecule  value.reported
1  N.N.O=C([O-])C1(C(=O)[O-])CCC1.[Pt+2]            20.2

Then there is this molecule:
Request: Please look up its IC50: N.N.[Cl][Pt][Cl] [Cisplatin, cisplatin]
Response: 1.5

----------
Tested on: TOV112D
Experiment: CellTiter-Blue cell viability assay
Assay type: cell-based, human
Conditions: TOV112D ovarian cancer cell line; 72 hours; 50% reduction in growth/viability
parameter: pIC50
Entry type: numeric. Quantity: pIC50, the -log10 of concentration in molar units.

Request: Please look up its pIC50: `N.N.O=C([O-])C1(C(=O)[O-])CCC1.[Pt+2]`
Response: 4.12

----------
Test system: OVCA432
Assay: CellTiter-Blue cell viability assay
Type: cell-based, human
Conditions: OVCA432 ovarian cancer cell line; 72 hours; 50% reduction in growth/viability
# reported pIC50; entries follow
Entry type: numeric. Quantity: pIC50, the -log10 of concentration in molar units.

> print(dat)
                                  compound  value.reported
1  N.N.[Cl][Pt][Cl] [Cisplatin, cisplatin]            5.85

Then there is this compound:
Request: Can you look up pIC50 on OVCA432 for `N.N.O=C([O-])C1(C(=O)[O-])CCC1.[Pt+2]` ?
Response: 4.20

Where these numbers come from: patent US10982284B2
